# measuredTarget: T1, Human PD-1-His protein (ACROBiosystems, # PD1-H5221) (human, UniProt Q15116 25-167)
# T1 construct: Bought reagent, coated on the ELISA plate; also called human PD-1 protein; human PD-1 antigen; not shown: His tag
# T1 sequence (Q15116 25-167 limits assumed): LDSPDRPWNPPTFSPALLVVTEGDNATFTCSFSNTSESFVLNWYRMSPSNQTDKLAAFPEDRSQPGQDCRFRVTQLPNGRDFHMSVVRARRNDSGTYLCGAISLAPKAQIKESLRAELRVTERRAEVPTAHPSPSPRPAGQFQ
# assayNotes: ELISA, plate-coated human PD-1-His
Measured OD Maximum by item

binder | OD Maximum
PR002481 (antibody, human IgG1, V domains shown, Heavy-chain-only antibody (HCAb), human IgG1 Fc; two heavy chains, no light chain; also called R4004P556D1; anti-PD1 R4004P556D1 HCAb hG1) VH: EVQLVETGGGLIQPGGSLRLSCAASGFNVSSHYMSWVRQAPGKGREWVSIIDGGGSTYYADSVKGRFTISRDNSKNRLYLQMNSLRAEDTAMYYCARATAVAEKNGYNYPFNYWGQGTLVTVSS | 2.85
PR002479 (antibody, human IgG1, V domains shown, Heavy-chain-only antibody (HCAb), human IgG1 Fc; two heavy chains, no light chain; also called R4004P551D6) VH: EVQLVETGGGLIQPGGSLRLSCAASGFNVSSHYMSWVRQAPGKGLEWVSIIHSGGSTYYADSVKGRFTISRDNSKNRLYLQMNSLRAEDTAVYYCARATAVAEENGYNYPFNYWGQGTLVTVSS | 2.85

This collection of values is drawn from patent US20240034792A1.
